cytotoxicity reference
assay: viability loss of HPDE-C7K cells – cell-based, fluorescence, HTS, primary screen (AID 431); conditions: HPDE-C7K KRASV12 cells, Alamar Blue viability, 48 h; at 10 µM; active compounds read high;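 further: 0% = DMSO solvent wells and 100% = doxorubicin-treated wells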
The campaign covered roughly 63,000 compounds. About 1,100 (1.7%) were called active. The full list was thinned out, with actives kept by preference. Potency and affinity values are given separately.
// units = %; emit number, no label

These recorded examples may help you get a feel for the data.
molecule	cytotoxicity [%]
Cc1ccc(N2CC(C(=O)N3CCN(C(=O)c4ccco4)CC3)CC2=O)cc1 (stereo not drawn)	52.5
CCOC(=O)C1CCN(C(=O)C2CC(=O)N(c3ccc(C)cc3)C2)CC1 (stereo not drawn)	-13.4
CSc1ccc(C2C(C#N)=C(N)Oc3c2ccc(=O)c2c(C)oc(C)c32)cc1 (stereo not drawn)	-2.3
Cc1ccc(-c2cc(-c3ccc(Cl)cc3)c(C#N)c(N)n2)o1	74.2
CC1CC(C)CN(c2nc3c(c(=O)[nH]c(=O)n3C)n2CCSc2nc3ccccc3o2)C1 (stereo not drawn)	2.4

(Q) Would you mind telling me what cytotoxicity value was observed for `COc1cccc(-c2nnc(NC(=O)c3ccc(S(=O)(=O)N4CCOCC4)cc3)o2)c1` ?
(A) 1

(Q) Would you mind telling me what cytotoxicity value was observed for CC(C)(C)N1C(=O)Cc2c1nc(N)c1c(N)nc(N3CCCCC3CO)c(C#N)c21 (stereo not drawn) ?
(A) 59.9

(Q) Would you mind telling me what cytotoxicity value was observed for Cc1ccc(C2c3c(oc4cc(C)c(C)cc4c3=O)C(=O)N2CCCN2CCOCC2)cc1 (stereo not drawn) ?
(A) -5.4

(Q) Would you mind telling me what cytotoxicity value was observed for `CC(=NCc1ccccc1)C1=C(O)COC1=O` ?
(A) -6

(Q) Would you mind telling me what cytotoxicity value was observed for `CCn1c(Sc2nc(C)nc3scc(-c4cccs4)c23)n[nH]c1=O` ?
(A) -16.8

(Q) Would you mind telling me what cytotoxicity value was observed for `c1ccc(Nc2ncnc3c2oc2ccccc23)cc1` ?
(A) -10

(Q) Would you mind telling me what cytotoxicity value was observed for `Cc1ccc(-c2cc(-c3ccccc3)c(C#N)c(N)n2)o1` ?
(A) 10.2

(Q) Would you mind telling me what cytotoxicity value was observed for `Cc1cc(C(=O)CSc2nc3ccccc3n2CCC#N)c(C)n1Cc1cccs1` ?
(A) -13.5

(Q) Would you mind telling me what cytotoxicity value was observed for `Clc1ccc(-c2noc(CN3CCCC3)n2)cc1` ?
(A) -4.3

(Q) Would you mind telling me what cytotoxicity value was observed for `COc1cccc(OC)c1C(=O)Nn1c(C2CCC2)nc2ccccc2c1=O` ?
(A) -10.3

(Q) Would you mind telling me what cytotoxicity value was observed for Cc1ccc(N2CC(C(=O)N3CCN(c4ccccc4)CC3)CC2=O)cc1 (stereo not drawn) ?
(A) 30.6

(Q) Would you mind telling me what cytotoxicity value was observed for `COc1ccc(N2CCN(CCCNC(=O)CCCn3c(=O)[nH]c4ccsc4c3=O)CC2)cc1` ?
(A) 10.4

(Q) Would you mind telling me what cytotoxicity value was observed for CN1C(=O)CC(N2CCN(CC(=O)N3CCCC3)CC2)C1=O (stereo not drawn) ?
(A) -1.8

(Q) Would you mind telling me what cytotoxicity value was observed for `N#Cc1c(N)nc2c(c1N)CC(=O)N2c1ccccc1-c1ccccc1` ?
(A) 5.8

(Q) Would you mind telling me what cytotoxicity value was observed for `c1ccc(Sc2nc(N3CCCCC3)nc(N3CCCCC3)n2)nc1` ?
(A) -16.3

(Q) Would you mind telling me what cytotoxicity value was observed for CC(O)C(O)C(O)C(O)C1NCCS1 (stereo not drawn) ?
(A) 5.8

(Q) Would you mind telling me what cytotoxicity value was observed for O=C1CN(C(=O)c2ccc(Br)o2)C(c2ccccc2)c2cc(F)ccc2N1 (stereo not drawn) ?
(A) 3

(Q) Would you mind telling me what cytotoxicity value was observed for `Cc1cc(-c2cc(-c3ccc(Cl)cc3)nc(N)c2C#N)co1` ?
(A) 92
